# Procedure details: in vitro
# Format: in vitro ADME
# Assay setup: human, Caco-2
# Method: CaCo-2 cells grown in tissue culture flasks are trypsinized, suspended in medium, and the suspensions are applied to wells of a collagen-coated BioCoat Cell Environment in 24-well format (BD Biosciences) at 24,500 cells per well. […] To verify that CaCo-2 cell monolayers are properly formed, aliquots of the cell buffers are analyzed by fluorescence to determine the transport of the impermeable dye Lucifer Yellow. Data are expressed as permeability (Papp): […]
Observation type: Papp A→B at 2 h, 10 μM (×10⁻⁶ cm/s)
Note: unit ×10⁻⁶ cm/s is implicit; provide only the numeric part.

Please report the measured Papp A→B at 2 h, 10 μM for CC(=O)CC(c1ccccc1)c1c(O)c2ccccc2oc1=O (centres unmarked) [Warfarin, reference compound]
45.8

Give Papp A→B at 2 h, 10 μM for the following compound: CNC(=C[N+](=O)[O-])NCCSCc1ccc(CN(C)C)o1 [Ranitidine, ranitidine, reference compound]
0.42

====

# Procedure details: in vitro
# Assay type: in vitro ADME
# Assay setup: human, Caco-2
Observation type: Papp B→A at 2 h, 10 μM (×10⁻⁶ cm/s)
Please reply with the bare figure in ×10⁻⁶ cm/s and do not write the unit itself.

Tell me measured Papp B→A at 2 h, 10 μM for CC(=O)CC(c1ccccc1)c1c(O)c2ccccc2oc1=O (stereo not shown) [Warfarin, reference compound] please.
11.7

====

# Assay setup: mouse, microsomes, 1 h, 1 μM, pH 7.4
Observation type: Minus NADPH Parent remaining mean (%)
Respond with the bare value in %.

Indicate the recorded Minus NADPH Parent remaining mean value for this compound: CN(C)c1cccc(-c2csc(N3CCC(C(N)=O)CC3)n2)c1
67

Annotate the compound O=C(O)C1CCN(c2nc(-c3ccc(Br)cc3)cs2)CC1 with its measured Minus NADPH Parent remaining mean.
95

Specify Minus NADPH Parent remaining mean for NC(=O)C1CCN(c2nc(-c3ccc(Br)cc3)cs2)CC1 and stop.
59

Give the reported value of Minus NADPH Parent remaining mean for this record: NC(=O)C1CCN(c2nc(-c3ccc4c(c3)OCCO4)cs2)CC1
16

====

# Assay setup: mouse, microsomes, 1 h, 1 μM, pH 7.4
# Experimental: The test agent is incubated at 1 μM in duplicate with mouse microsomes at 37° C. for 60 min. The reaction contains 0.3 mg/mL microsomal protein in 100 mM potassium phosphate, 2 mM NADPH, 3 mM MgCl2, pH 7.4. A control is run for each test agent omitting NADPH to detect NADPH-free degradation. […] The samples are centrifuged to remove precipitated protein, and the supernatants are analyzed by LC/MS/MS, as described above, to quantitate the remaining parent. […]
Observation type: Plus NADPH Parent remaining mean (%)
Field format: number, assumed %, no unit text.

Please indicate Plus NADPH Parent remaining mean recorded for NC(=O)C1CCN(c2nc(-c3ccc(Br)cc3)cs2)CC1
49

Return reported Plus NADPH Parent remaining mean. Input molecule: O=C(O)C1CCN(c2nc(-c3ccc(Br)cc3)cs2)CC1
81

Read the entry CN(C)c1cccc(-c2csc(N3CCC(C(N)=O)CC3)n2)c1 and write its reported Plus NADPH Parent remaining mean.
0

Write down Plus NADPH Parent remaining mean measured for item NC(=O)C1CCN(c2nc(-c3ccc4c(c3)OCCO4)cs2)CC1
1

====

# Assay setup: mouse, microsomes, 1 h, 1 μM, pH 7.4
I'd be grateful if you could share measured Minus NADPH Parent remaining 1st for these entries.
Note: a bare number is incomplete; add the unit.

Supply reported Minus NADPH Parent remaining 1st belonging to this molecule: O=C(O)C1CCN(c2nc(-c3ccc(Br)cc3)cs2)CC1
90%

Please look at this molecule and report its Minus NADPH Parent remaining 1st: NC(=O)C1CCN(c2nc(-c3ccc4c(c3)OCCO4)cs2)CC1
16%

Specify Minus NADPH Parent remaining 1st for NC(=O)C1CCN(c2nc(-c3ccc(Br)cc3)cs2)CC1 and stop.
68%

Kindly indicate its recorded Minus NADPH Parent remaining 1st. Item: CN(C)c1cccc(-c2csc(N3CCC(C(N)=O)CC3)n2)c1
69%
